Each recorded value in this set is attributed to paper PMC3361238.

biological target: Sma nuc endonuclease (isoform Sm2) (Serratia marcescens); construct: gene nucA; Sm2 known as the full 245-residue mature form (signal peptide removed); test: hyperchromic RNA hydrolysis assay at […] nm; secondary double reciprocal plot of Lineweaver-Burk segments; type: biochemical
Sequence (P13717 22-266): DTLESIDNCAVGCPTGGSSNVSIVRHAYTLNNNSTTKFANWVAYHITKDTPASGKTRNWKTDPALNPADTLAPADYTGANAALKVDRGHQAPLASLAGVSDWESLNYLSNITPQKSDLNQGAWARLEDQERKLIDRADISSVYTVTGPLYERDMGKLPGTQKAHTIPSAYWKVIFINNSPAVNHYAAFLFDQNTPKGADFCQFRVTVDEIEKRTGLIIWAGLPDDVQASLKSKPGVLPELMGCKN
Please go through the items and note down their pKi.
Numbers only, as −log10 of the molar value.

Nc1ncnc2c1ncn2[C@@H]1O[C@H](COP(=O)(O)O)[C@@H](O)[C@H]1O [AMP]: 4.12

Query (molecule): Nc1ncnc2c1ncn2[C@H]1C[C@H](O)[C@@H](COP(=O)(O)O)O1 [dAMP] ; field requested: pKi
4.22
